Here the recorded Relative activity (%) in presence of inhibitors is given for each entry.
- tested.target: L-lysine α-oxidase (Trichoderma viride)
- Construct: mature processed form
- protocol.details: Enzyme activity in the presence of metallic ions and additives (inhibition, activation, stabilization)
- Format: biochemical
- experimental.parameters: inhibitor concentration not given
endpoint.label: Relative activity (%) in presence of inhibitors

>>> print(df.to_string())
                                   molecule  numeric_value
0  O=S(=O)(O)c1cc(O)c(O)c(S(=O)(=O)O)c1 [Tiron]           96.5
1  O=C(O)c1cc[c]([Hg][Cl])cc1 [PCMB, para-Chloromercuribenzoic acid]           42.9
2          [Cl][Hg][Cl] [Mercuric chloride]           19.2
3       CCN1C(=O)C=CC1=O [N-Ethylmaleimide]          108.7
4              N[C@@H](CS)C(=O)O [Cysteine]          100.3

* * *

- tested.target: L-lysine α-oxidase (Trichoderma viride, UniProt A0A0G4DCU0)
- Construct: mature processed form
- Sequence (A0A0G4DCU0 77-617): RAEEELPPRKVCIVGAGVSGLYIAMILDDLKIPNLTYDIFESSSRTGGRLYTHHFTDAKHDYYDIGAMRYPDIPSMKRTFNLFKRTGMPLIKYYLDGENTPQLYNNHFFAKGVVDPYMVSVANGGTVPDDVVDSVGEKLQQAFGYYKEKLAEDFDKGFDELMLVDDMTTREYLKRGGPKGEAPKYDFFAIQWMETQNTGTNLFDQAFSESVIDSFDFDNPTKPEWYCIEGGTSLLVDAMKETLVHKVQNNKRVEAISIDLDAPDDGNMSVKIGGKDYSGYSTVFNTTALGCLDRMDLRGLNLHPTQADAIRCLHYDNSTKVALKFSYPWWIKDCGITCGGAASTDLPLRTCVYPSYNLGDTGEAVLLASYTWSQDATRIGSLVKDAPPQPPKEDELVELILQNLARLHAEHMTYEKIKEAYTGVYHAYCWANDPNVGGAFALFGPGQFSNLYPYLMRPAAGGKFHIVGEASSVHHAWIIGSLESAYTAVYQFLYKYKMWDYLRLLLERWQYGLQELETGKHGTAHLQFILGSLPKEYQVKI
- protocol.details: Substrate specificity, relative enzyme activity by oxygen-electrode method
- Type: biochemical
- experimental.parameters: substrate 10 mM, purified enzyme, L-Lysine = 100
Listed below: Relative activity (%) values for each entry.
endpoint.label: Relative activity (%)

>>> df
                                    compound                             tested_target         endpoint_label  result
 0                  N[C@@H](Cc1ccccc1)C(=O)O  L-lysine α-oxidase (Trichoderma viride, UniProt A0A0G4DCU0)  Relative activity (%)    8.3%
 1                       CC(C)[C@H](N)C(=O)O  L-lysine α-oxidase (Trichoderma viride, UniProt A0A0G4DCU0)  Relative activity (%)  < 0.5%
 2                       NCCCC[C@H](N)C(=O)O  L-lysine α-oxidase (Trichoderma viride, UniProt A0A0G4DCU0)  Relative activity (%)  100.0%
 3  NCCCC[C@H](N)C(=O)NO [L-Lysine hydroxamate]  L-lysine α-oxidase (Trichoderma viride, UniProt A0A0G4DCU0)  Relative activity (%)   62.1%
 4                         N[C@@H](CS)C(=O)O  L-lysine α-oxidase (Trichoderma viride, UniProt A0A0G4DCU0)  Relative activity (%)  < 0.5%
 5                    NC(=O)CC[C@H](N)C(=O)O  L-lysine α-oxidase (Trichoderma viride, UniProt A0A0G4DCU0)  Relative activity (%)  < 0.5%
 6                      NCCCC[C@@H](N)C(=O)O  L-lysine α-oxidase (Trichoderma viride, UniProt A0A0G4DCU0)  Relative activity (%)  < 0.5%
 7                       NCCSC[C@H](N)C(=O)O  L-lysine α-oxidase (Trichoderma viride, UniProt A0A0G4DCU0)  Relative activity (%)    9.8%
 8                    N[C@@H](CC(=O)O)C(=O)O  L-lysine α-oxidase (Trichoderma viride, UniProt A0A0G4DCU0)  Relative activity (%)  < 0.5%
 9                NCCCCCC(N)C(=O)O (racemic)  L-lysine α-oxidase (Trichoderma viride, UniProt A0A0G4DCU0)  Relative activity (%)   31.1%
10                      CC(C)C[C@H](N)C(=O)O  L-lysine α-oxidase (Trichoderma viride, UniProt A0A0G4DCU0)  Relative activity (%)  < 0.5%
11                  CC[C@H](C)[C@H](N)C(=O)O  L-lysine α-oxidase (Trichoderma viride, UniProt A0A0G4DCU0)  Relative activity (%)  < 0.5%
12                    CCOC(=O)[C@@H](N)CCCCN  L-lysine α-oxidase (Trichoderma viride, UniProt A0A0G4DCU0)  Relative activity (%)   83.3%
13          N[C@@H](Cc1c[nH]c2ccccc12)C(=O)O  L-lysine α-oxidase (Trichoderma viride, UniProt A0A0G4DCU0)  Relative activity (%)  < 0.5%
14                  C[C@@H](O)[C@H](N)C(=O)O  L-lysine α-oxidase (Trichoderma viride, UniProt A0A0G4DCU0)  Relative activity (%)  < 0.5%
15                N[C@@H](Cc1c[nH]cn1)C(=O)O  L-lysine α-oxidase (Trichoderma viride, UniProt A0A0G4DCU0)  Relative activity (%)    3.8%
16          NCCC(N)C(=O)O (stereo not shown)  L-lysine α-oxidase (Trichoderma viride, UniProt A0A0G4DCU0)  Relative activity (%)  < 0.5%
17                              NCCCCCC(=O)O  L-lysine α-oxidase (Trichoderma viride, UniProt A0A0G4DCU0)  Relative activity (%)  < 0.5%
18                           C[C@H](N)C(=O)O  L-lysine α-oxidase (Trichoderma viride, UniProt A0A0G4DCU0)  Relative activity (%)  < 0.5%
19           NCC(N)C(=O)O (stereo not shown)  L-lysine α-oxidase (Trichoderma viride, UniProt A0A0G4DCU0)  Relative activity (%)  < 0.5%
20  NCC(O)CC[C@H](N)C(=O)O (stereo partly shown) [δ-Hydroxy-lysine]  L-lysine α-oxidase (Trichoderma viride, UniProt A0A0G4DCU0)  Relative activity (%)   37.1%
21                     NC(=O)C[C@H](N)C(=O)O  L-lysine α-oxidase (Trichoderma viride, UniProt A0A0G4DCU0)  Relative activity (%)  < 0.5%
22                 NC(=O)NCCCC[C@H](N)C(=O)O  L-lysine α-oxidase (Trichoderma viride, UniProt A0A0G4DCU0)  Relative activity (%)  < 0.5%
23                  NC(=O)NCCC[C@H](N)C(=O)O  L-lysine α-oxidase (Trichoderma viride, UniProt A0A0G4DCU0)  Relative activity (%)  < 0.5%
24                                   NCCCCCN  L-lysine α-oxidase (Trichoderma viride, UniProt A0A0G4DCU0)  Relative activity (%)  < 0.5%
